# Read-out: Collagen I, COL1A1 (gene 1277)
# assayComment: BSK_MyoF_CollagenI: BioMAP Diversity Plus: MyoF Assay for Collagen I Biomarker Activity (AID 2284238)
# measurementContext: primary human lung fibroblasts
Activity calls are given as the source filed them. How the source made its calls: active means hit-call score of the fitted dose curve at least 0.9, where 1 is the maximum; inactive means score below 0.9.
Assign a class; possible classes are label 1 = active, label 0 = inactive

Here's what some known entries look like.
- molecule: "Cc1ccc(OP(=O)(Oc2ccc(C)cc2)Oc2ccc(C)cc2)cc1 (tested in a mixture with another compound)"
  class: "label 1"
- molecule: "C=CC(=O)OCC(CC)CCCC (stereo not given)"
  class: "label 0"
- molecule: "CC1(C)[C@H](C(=O)O[C@H](C#N)c2cccc(Oc3ccccc3)c2)[C@@H]1C=C(Br)Br"
  class: "label 0"
- molecule: "COC(C)(C)CCC[C@H](C)C/C=C/C(C)=C/C(=O)OC(C)C"
  class: "label 0"

Okay, next one:
Q: Recorded test call requested for c1ccc(Nc2ccc3ccccc3c2)cc1
A: label 1

---

# Read-out: Collagen III, COL3A1 (gene 1281)
# assayComment: BSK_MyoF_CollagenIII: BioMAP Diversity Plus: MyoF Assay for Collagen III Biomarker Activity (AID 2284239)
# measurementContext: primary human lung fibroblasts
The source made the active and inactive calls. Rule for the calls: active = hit-call score of the fitted dose curve at least 0.9, where 1 is the maximum; inactive = score below 0.9.
Assign a class; possible classes are active, inactive

Here's what some known entries look like.
- compound: "Clc1ccc(-c2ccccc2)cc1"
  class: "inactive"
- compound: "CCC(C)c1cc([N+](=O)[O-])cc([N+](=O)[O-])c1OC(=O)C=C(C)C (configuration not stated)"
  class: "active"
- compound: "CCCOC(=O)c1ccccc1C(=O)OCCC"
  class: "inactive"
- compound: "C=CCN(CC=C)C(=O)C(Cl)Cl"
  class: "inactive"
- compound: "C=CC(=O)OCC(CC)CCCC (configuration not stated)"
  class: "inactive"

Q: Recorded test call requested for CNC(=O)Oc1cc(C)c(SC)c(C)c1
A: inactive

Q: Cool, now CCCCCCCCCCCC#N
A: active

---

# measurementTarget: rat Acetylcholinesterase (AChE), Ache (gene 83817)
# assayComment: NVS_ENZ_rAChE: NovaScreen (NVS) Enzymatic Assay for rat Acetylcholinesterase (AChE) (AID 2283233)
Records with an inconclusive call do not appear. The source made the active and inactive calls. How the source made its calls: active means hit-call score of the fitted dose curve at least 0.9, where 1 is the maximum; inconclusive means response in the unintended direction; inactive means score below 0.9.
Assign a class; possible classes are 1 (active), 0 (inactive)

Here's what some known entries look like.
- smilesEntry: "O=C1OC2(c3cc(Br)c(O)c(Br)c3Oc3c2cc(Br)c(O)c3Br)c2c(Cl)c(Cl)c(Cl)c(Cl)c21"
  measurementTarget: "rat Acetylcholinesterase (AChE), Ache (gene 83817)"
  class: 1
- smilesEntry: "CCCCCCCC=O"
  measurementTarget: "rat Acetylcholinesterase (AChE), Ache (gene 83817)"
  class: 0
- smilesEntry: "CSC(=O)c1cccc2nnsc12"
  measurementTarget: "rat Acetylcholinesterase (AChE), Ache (gene 83817)"
  class: 1

Q: Recorded test call requested for NCc1cccc(C2CCN(C(=O)c3ccc(C#Cc4ccccc4F)o3)CC2)c1
A: 1

Q: Cool, now CC[C@H]1CC[C@H](NCc2cc3c(cc2OC)[C@H]2C[C@H]2C(=O)N3C)[C@H](c2ccccc2)N1
A: 1

Q: Cool, now CCN(CC)CCNc1ccc(CNC=O)c2sc3ccc(OC)cc3c(=O)c12
A: 1

Q: Cool, now S=C(S)NCCNC(=S)S.[Mn+2].[S-]C([S-])=NCCN=C([S-])[S-].[Zn+2]
A: 0

Q: Cool, now O=Cc1ccccc1C=O
A: 0

Q: Cool, now CCn1nc(C)c2c1C(=O)NCC(c1ccc(O)cc1)=N2
A: 0

Q: Cool, now O=C(Nc1ccc(Cl)cc1)Nc1ccc(Cl)c(Cl)c1
A: 0

Q: Cool, now S=C(NC1CCCCC1)NC1CCCCC1
A: 1
